Where do these numbers come from? They come from ChEMBL document CHEMBL1154514.

ASSAYED_SYSTEM: UniProt:P19602
Sequence (P19602 whole entry): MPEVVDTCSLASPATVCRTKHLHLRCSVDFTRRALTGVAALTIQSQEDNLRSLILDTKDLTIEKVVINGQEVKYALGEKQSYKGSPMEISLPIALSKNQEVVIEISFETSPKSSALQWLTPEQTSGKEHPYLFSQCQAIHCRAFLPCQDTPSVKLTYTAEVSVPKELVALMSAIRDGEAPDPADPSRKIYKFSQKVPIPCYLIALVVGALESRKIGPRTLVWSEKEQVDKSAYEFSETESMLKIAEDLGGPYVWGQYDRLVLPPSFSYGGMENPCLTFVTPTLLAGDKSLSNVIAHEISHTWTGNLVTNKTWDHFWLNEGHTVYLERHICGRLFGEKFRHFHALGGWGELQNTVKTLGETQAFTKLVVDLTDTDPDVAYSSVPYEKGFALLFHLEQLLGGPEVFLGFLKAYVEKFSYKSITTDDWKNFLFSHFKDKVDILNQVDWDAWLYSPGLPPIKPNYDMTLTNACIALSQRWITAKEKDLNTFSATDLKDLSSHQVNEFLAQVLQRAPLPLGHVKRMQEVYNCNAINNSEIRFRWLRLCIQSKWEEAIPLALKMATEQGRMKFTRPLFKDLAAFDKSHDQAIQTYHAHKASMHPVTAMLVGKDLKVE
TEST_PROTOCOL: Inhibition of LTA4 hydrolase in guinea pig lung assessed as inhibition of LTB4 production
EXPERIMENTAL_CONTEXT: read-out: pIC50 (converted)
MEASURE: IC50 (nM)
Could you give me the number in nM? Just the number is fine.

Quick one: IC50 for CCOc1ccc(CSC[C@H](NC(=O)[C@H](C)CS)C(=O)O)cc1 ?
640

Quick one: IC50 for CC(C)c1ccc(CSC[C@H](NC(=O)[C@H](C)CS)C(=O)O)cc1 ?
200

Quick one: IC50 for CCc1ccc(CSC[C@H](NC(=O)[C@H](C)CS)C(=O)O)cc1 ?
280

Quick one: IC50 for C[C@H](CS)C(=O)N[C@@H](CSCc1ccc(C(C)(C)C)cc1)C(=O)O ?
24

Quick one: IC50 for COc1ccc(CSC[C@H](NC(=O)[C@H](C)CS)C(=O)O)cc1 ?
2400

Quick one: IC50 for C[C@H](CS)C(=O)N[C@@H](CSCc1ccc(C2CCCCC2)cc1)C(=O)O ?
79

Quick one: IC50 for C[C@H](CS)C(=O)N[C@@H](CSCc1ccc(Cl)cc1)C(=O)O ?
1700

Quick one: IC50 for C[C@H](CS)C(=O)N[C@@H](CSCc1ccc(Oc2ccccc2)cc1)C(=O)O ?
1700

Quick one: IC50 for CCCc1ccc(CSC[C@H](NC(=O)[C@H](C)CS)C(=O)O)cc1 ?
72

Quick one: IC50 for C[C@H](CS)C(=O)N[C@@H](CSCc1ccc(I)cc1)C(=O)O ?
15
